Molecular target: AXL (Homo sapiens, UniProt P30530)
Sequence (P30530 26-894): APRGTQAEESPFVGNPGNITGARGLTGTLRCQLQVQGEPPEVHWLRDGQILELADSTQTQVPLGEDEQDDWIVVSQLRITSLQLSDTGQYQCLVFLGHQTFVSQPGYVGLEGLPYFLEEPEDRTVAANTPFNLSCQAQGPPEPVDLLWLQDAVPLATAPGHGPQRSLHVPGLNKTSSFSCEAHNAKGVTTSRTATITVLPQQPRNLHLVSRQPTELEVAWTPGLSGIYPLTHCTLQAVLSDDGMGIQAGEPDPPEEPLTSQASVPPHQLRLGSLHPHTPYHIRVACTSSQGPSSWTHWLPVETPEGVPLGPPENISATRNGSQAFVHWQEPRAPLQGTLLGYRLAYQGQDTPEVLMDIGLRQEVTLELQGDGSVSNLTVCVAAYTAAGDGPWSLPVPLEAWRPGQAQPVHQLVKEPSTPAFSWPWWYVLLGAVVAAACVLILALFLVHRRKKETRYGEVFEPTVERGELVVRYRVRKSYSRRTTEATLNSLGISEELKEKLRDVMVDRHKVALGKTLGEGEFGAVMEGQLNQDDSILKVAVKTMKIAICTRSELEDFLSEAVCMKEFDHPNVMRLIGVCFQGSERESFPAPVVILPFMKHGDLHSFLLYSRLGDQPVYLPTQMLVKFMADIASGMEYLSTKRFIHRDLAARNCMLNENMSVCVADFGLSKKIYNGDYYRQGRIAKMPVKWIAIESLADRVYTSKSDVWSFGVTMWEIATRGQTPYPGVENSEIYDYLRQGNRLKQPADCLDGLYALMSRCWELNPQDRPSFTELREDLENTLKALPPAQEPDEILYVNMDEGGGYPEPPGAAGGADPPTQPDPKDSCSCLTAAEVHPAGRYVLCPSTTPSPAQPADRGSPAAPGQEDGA
value_kind: IC50

Which IC50 is reported for this molecule? Cc1ccc(C(=O)Nc2ccc(CN3CCN(C)CC3)c(C(F)(F)F)c2)cc1C#Cc1cnc2cccnn12 [ponatinib]
> 1000 nM

###

molecular target: TYK1 (Homo sapiens, UniProt P29376)
Sequence (P29376 17-864, species assumed): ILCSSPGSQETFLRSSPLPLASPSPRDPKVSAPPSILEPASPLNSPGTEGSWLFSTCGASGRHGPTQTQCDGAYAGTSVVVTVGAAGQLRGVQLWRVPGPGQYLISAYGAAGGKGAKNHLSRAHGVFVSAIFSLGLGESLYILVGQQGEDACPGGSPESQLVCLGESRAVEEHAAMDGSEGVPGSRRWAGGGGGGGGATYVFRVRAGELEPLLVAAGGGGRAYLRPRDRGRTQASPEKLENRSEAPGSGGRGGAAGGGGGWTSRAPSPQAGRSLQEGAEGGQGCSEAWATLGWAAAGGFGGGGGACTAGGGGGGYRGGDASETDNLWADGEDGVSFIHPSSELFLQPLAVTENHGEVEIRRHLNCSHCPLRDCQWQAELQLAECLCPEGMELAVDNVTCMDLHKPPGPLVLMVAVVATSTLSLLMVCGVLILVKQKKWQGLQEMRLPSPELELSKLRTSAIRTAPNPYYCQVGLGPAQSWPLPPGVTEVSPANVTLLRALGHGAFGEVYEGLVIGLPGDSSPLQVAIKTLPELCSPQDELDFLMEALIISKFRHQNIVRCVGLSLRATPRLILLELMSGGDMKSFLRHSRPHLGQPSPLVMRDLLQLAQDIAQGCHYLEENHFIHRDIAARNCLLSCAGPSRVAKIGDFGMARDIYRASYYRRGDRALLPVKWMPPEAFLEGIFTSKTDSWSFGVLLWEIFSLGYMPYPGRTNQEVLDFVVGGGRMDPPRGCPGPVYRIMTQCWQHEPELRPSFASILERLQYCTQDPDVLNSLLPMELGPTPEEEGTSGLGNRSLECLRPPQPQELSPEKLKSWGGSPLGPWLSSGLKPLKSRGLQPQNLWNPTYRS
pIC50: −log10 of the molar value.
value_kind: pIC50

Which pIC50 is reported for this molecule? Cc1ccc(C(=O)Nc2ccc(CN3CCN(C)CC3)c(C(F)(F)F)c2)cc1C#Cc1cnc2cccnn12
< 6.00

###

Protein target, amino acids: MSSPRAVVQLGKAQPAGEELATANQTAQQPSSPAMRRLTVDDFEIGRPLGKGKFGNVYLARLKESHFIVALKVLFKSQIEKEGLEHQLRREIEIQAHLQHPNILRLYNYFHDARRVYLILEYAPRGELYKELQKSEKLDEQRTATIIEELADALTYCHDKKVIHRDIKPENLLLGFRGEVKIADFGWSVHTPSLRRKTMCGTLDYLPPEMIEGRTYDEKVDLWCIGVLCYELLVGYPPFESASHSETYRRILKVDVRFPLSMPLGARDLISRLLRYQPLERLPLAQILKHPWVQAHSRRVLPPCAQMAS
value_kind: IC50

Which IC50 is reported for this molecule? Cc1ccc(C(=O)Nc2ccc(CN3CCN(C)CC3)c(C(F)(F)F)c2)cc1C#Cc1cnc2cccnn12
> 1000 nM

###

target: ALK (Homo sapiens, UniProt Q9UM73)
Sequence (Q9UM73 19-1620): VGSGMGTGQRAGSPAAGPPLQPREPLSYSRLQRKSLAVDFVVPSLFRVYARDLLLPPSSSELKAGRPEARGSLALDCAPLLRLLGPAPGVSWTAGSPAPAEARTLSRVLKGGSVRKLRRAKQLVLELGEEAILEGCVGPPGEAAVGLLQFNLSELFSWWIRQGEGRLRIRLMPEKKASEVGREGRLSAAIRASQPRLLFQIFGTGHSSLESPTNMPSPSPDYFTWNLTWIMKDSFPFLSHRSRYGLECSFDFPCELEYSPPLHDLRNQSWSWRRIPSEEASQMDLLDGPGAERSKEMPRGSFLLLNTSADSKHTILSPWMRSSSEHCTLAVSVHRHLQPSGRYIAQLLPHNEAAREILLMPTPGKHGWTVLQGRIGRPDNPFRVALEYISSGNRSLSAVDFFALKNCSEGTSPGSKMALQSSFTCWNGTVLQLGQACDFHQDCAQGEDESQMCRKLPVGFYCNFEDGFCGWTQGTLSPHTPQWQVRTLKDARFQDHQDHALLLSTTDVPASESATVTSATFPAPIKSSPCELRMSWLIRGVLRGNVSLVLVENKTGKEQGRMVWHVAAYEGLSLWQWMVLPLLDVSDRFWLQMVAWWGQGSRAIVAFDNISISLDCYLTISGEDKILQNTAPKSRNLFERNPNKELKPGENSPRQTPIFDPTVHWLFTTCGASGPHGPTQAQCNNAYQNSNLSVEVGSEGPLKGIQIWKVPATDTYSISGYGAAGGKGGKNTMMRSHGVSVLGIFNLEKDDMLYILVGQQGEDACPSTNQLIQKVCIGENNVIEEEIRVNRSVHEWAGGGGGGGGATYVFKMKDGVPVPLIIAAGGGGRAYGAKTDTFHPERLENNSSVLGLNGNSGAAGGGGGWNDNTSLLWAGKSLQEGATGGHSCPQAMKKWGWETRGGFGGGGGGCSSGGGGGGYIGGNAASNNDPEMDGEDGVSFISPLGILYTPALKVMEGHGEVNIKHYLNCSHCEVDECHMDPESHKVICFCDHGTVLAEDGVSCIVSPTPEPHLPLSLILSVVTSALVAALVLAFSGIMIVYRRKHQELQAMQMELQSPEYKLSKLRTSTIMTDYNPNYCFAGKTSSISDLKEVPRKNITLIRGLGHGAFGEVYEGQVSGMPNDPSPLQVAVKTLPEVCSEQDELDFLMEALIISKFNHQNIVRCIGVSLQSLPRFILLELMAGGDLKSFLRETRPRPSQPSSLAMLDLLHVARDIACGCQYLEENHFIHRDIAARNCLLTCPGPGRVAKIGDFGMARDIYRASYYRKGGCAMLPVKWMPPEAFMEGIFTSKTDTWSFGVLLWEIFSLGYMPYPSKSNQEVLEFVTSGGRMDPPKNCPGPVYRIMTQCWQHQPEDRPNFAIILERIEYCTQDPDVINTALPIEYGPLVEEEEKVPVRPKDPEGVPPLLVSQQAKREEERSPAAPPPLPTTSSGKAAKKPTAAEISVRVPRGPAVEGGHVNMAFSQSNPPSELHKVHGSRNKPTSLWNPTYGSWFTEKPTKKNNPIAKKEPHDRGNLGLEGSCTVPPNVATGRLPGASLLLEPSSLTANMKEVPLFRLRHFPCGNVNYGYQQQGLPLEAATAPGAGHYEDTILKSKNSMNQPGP
value_kind: IC50

Which IC50 is reported for this compound? Cc1ccc(C(=O)Nc2ccc(CN3CCN(C)CC3)c(C(F)(F)F)c2)cc1C#Cc1cnc2cccnn12 [ponatinib]
> 1 µM

###

biological target: ROS (Homo sapiens)
value_kind: IC50

Form field: IC50 recorded for Cc1ccc(C(=O)Nc2ccc(CN3CCN(C)CC3)c(C(F)(F)F)c2)cc1C#Cc1cnc2cccnn12 [ponatinib] with ROS (Homo sapiens) (enter value)
> 1000 nM

###

molecular target: IRR (Homo sapiens)
Sequence (P14616 27-1297): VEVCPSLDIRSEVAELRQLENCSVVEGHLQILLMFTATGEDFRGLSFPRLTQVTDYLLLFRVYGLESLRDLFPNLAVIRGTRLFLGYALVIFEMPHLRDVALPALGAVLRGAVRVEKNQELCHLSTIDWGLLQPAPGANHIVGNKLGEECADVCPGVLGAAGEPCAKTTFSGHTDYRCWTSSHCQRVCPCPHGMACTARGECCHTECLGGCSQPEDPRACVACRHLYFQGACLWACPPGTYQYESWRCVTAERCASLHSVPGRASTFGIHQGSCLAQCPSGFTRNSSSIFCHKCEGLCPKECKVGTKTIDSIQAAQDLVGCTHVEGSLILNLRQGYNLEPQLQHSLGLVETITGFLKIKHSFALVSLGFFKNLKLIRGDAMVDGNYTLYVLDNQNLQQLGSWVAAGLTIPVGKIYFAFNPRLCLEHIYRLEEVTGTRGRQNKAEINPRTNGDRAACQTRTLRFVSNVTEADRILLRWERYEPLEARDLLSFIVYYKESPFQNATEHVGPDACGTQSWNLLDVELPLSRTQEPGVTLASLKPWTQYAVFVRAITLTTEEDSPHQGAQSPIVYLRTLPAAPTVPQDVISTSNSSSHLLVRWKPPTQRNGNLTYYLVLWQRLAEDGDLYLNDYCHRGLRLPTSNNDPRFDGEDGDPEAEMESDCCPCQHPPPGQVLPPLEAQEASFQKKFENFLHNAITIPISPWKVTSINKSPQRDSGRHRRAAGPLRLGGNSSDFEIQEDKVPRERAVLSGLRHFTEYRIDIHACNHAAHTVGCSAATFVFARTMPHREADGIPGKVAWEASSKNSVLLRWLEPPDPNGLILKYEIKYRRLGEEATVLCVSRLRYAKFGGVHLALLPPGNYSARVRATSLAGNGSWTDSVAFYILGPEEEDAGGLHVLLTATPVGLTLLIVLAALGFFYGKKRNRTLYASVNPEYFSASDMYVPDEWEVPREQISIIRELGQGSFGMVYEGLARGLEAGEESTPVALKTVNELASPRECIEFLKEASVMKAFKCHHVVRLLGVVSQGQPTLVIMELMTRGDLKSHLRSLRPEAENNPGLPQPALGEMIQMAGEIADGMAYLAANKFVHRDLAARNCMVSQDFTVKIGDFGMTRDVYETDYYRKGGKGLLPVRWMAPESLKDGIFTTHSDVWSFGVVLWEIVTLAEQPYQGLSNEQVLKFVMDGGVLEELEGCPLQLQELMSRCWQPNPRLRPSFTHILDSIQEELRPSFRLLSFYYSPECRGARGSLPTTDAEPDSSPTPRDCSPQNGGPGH
pIC50: −log10 of the molar value.
value_kind: pIC50

Which pIC50 is reported for this compound? Cc1ccc(C(=O)Nc2ccc(CN3CCN(C)CC3)c(C(F)(F)F)c2)cc1C#Cc1cnc2cccnn12
< 6.00

###

experiment: in vivo; details: rat, plasma, po, 5 mg/kg
value_kind: Cmax (ng/mL)
Write the value in ng/mL as a bare number.

Which Cmax is reported for this molecule? Cc1ccc(C(=O)Nc2ccc(CN3CCN(C)CC3)c(C(F)(F)F)c2)cc1C#Cc1cnc2cccnn12
175

###

target: PKC8; test: in vitro kinase assay
pIC50: −log10 of the molar value.
value_kind: pIC50

Which pIC50 is reported for this compound? Cc1ccc(C(=O)Nc2ccc(CN3CCN(C)CC3)c(C(F)(F)F)c2)cc1C#Cc1cnc2cccnn12
< 6.00
